Source: paper PMC9841589

Biological target: mPGES-1 (Homo sapiens, UniProt O14684)
Construct: endogenous in cells; host or cells: A549 cells stimulated with IL-1β; microsomal fraction
Sequence (O14684 whole entry): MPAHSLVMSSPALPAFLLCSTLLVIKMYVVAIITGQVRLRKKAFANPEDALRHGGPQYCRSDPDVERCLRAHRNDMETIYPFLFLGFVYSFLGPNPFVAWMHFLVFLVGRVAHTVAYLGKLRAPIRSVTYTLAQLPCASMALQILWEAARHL
Assay: Cell-free mPGES-1 activity assay (PGE2 biosynthesis)
Format: biochemical
Conditions: 10 μM, percentage of control (100%), read-out: mPGES-1 residual activity at 10 μM (%)
# reported remaining activity at 10 µM; entries follow

- molecule: "Nc1ccccc1-c1ccc(-c2nnc(NC(=O)c3cc(F)ccc3F)s2)cc1 [compound 8]"
  remaining activity at 10 µM: "> 50%"
- molecule: "Cc1cc(C(=O)Nc2nnc(-c3ccc(-c4cccc(O)c4)cc3)s2)cc(Cl)n1 [compound 2]"
  remaining activity at 10 µM: "> 50%"
- molecule: "Cc1ccoc1C(=O)Nc1nnc(-c2ccc(-c3ccccc3N)cc2)s1 [compound 5]"
  remaining activity at 10 µM: "> 25%"
- molecule: "Cc1ccoc1C(=O)Nc1nnc(-c2ccc(-c3cccc(O)c3)cc2)s1 [compound 1]"
  remaining activity at 10 µM: "> 50%"
- molecule: "O=C(Nc1nnc(-c2ccc(-c3cccc(O)c3)cc2)s1)c1cc(F)ccc1F [compound 4]"
  remaining activity at 10 µM: "> 50%"
